Test system: P388 leukemia ip, CD2F1 mice, survival T/C
protocol-notes: NCI In Vivo Anticancer Drug Screen. Data for tumor model P388 Leukemia (intraperitoneal) in CD2F1 (CDF1) mice
test-parameters: endpoint: median survival time; dose: 400.0 mg/kg/injection; schedule: Q01DX001 (ip); vehicle: Klucel (hydroxypropylcellulose) (HPC)
Toxic doses and inconclusive results are not listed. How the source made its calls: active means survival T/C of 150% or more; inactive means T/C below 125% in these data.
Choose one outcome from this list and give only that: YES (active), NO (inactive)

Study these solved cases before continuing.
Req: Returns: the outcome recorded for COc1cc(Cc2nnc(N)nc2N)cc(OC)c1OC in this assay.
Resp: NO

Req: Which outcome was assigned to CC1COC2(CCC(=CC(=O)O)CC2)O1 (configuration not stated) in this test?
Resp: NO

Req: Any idea what this test logged for C1CC2CC1C13OC1C1(CC1)C1OC213 (configuration not stated) ?
Resp: YES

---
Req: Query: recorded result category for CCNC(=O)OCc1c(Cl)nc2sccn12 in this test
Resp: NO

Req: Recorded test call requested for CNc1c(C(=O)Nc2ccccc2)c(=O)n(C)c(=O)n1C
Resp: NO

Req: Which result was noted for this molecule in the test: Cc1c(O)c(O)c2c(c1O)N=C(Cl)/C2=C\N=NC(N)=S
Resp: NO

Req: GET /call?item= CC(=O)N1NC(=O)c2c(c3ccccc3n2C)C1c1ccc(C)cc1 (configuration not stated) returns the recorded outcome of this test.
Resp: NO

----------
Tested on: P388 leukemia ip, CD2F1 mice, survival T/C
protocol-notes: NCI In Vivo Anticancer Drug Screen. Data for tumor model P388 Leukemia (intraperitoneal) in CD2F1 (CDF1) mice
test-parameters: endpoint: median survival time; dose: 120.0 mg/kg/injection; schedule: Q01DX005 (ip); vehicle: saline with Tween-80; higher = longer survival
Toxic doses and inconclusive results are not listed.
In this section, each of the compounds is paired with its reported T/C.

Solved entries:
Req: If you can, please state the reported T/C value of CCOCCOCCOC(C)Oc1cccc(C(=O)OCC)c1 (stereo unspecified) .
Resp: 100 % of control

Req: Query (compound): CN(CCOC(N)=O)CCOC(N)=O ; field requested: T/C
Resp: 97 % of control

Req: Could you tell me which T/C is on file for COc1ccc(N2C(=O)C(C)SC23C(=O)Nc2ccc(C)cc23)cc1 (stereo unspecified) ?
Resp: 102 % of control

Req: I have this compound here, O=C(/C=C/C(=O)Nc1ccc(F)cc1F)Nc1ccc(F)cc1F , and I need its recorded T/C.
Resp: 98 % of control

Req: What value of T/C has been recorded for this entry: COc1ccc(CCN2C(=O)NC(=O)C2=O)cc1OC
Resp: 101 % of control

// below: T/C requested for another compound
Req: # get_value(readout='T/C', item= Cc1ccc2occ(-c3nnc(NC(=O)c4ccccc4)s3)c(=O)c2c1 )
Resp: 86 % of control

----------
T/C by entry:
System: P388 leukemia ip, CD2F1 mice, survival T/C
protocol-notes: NCI In Vivo Anticancer Drug Screen. Data for tumor model P388 Leukemia (intraperitoneal) in CD2F1 (CDF1) mice
test-parameters: endpoint: median survival time; dose: 100.0 mg/kg/injection; schedule: Q01DX001 (ip); vehicle: Klucel (hydroxypropylcellulose) (HPC); higher = longer survival
Method: The antitumor activity of compounds was measured in mice bearing transplantable tumors. Survival or tumor size were measured and the results are expressed as the measurement made in the treated group (T) divided by the measurement made in the vehicle treated control group (C). The tumor model used in this assay is P388 Leukemia (intraperitoneal) in CD2F1 (CDF1) mice
Toxic doses and inconclusive results are not listed.

Example compounds with recorded T/C:
Req: Form entry - test system: P388 leukemia ip, CD2F1 mice, survival T/C; read-out: T/C; compound: CN(C)c1c(-c2ccccc2)nnc(-c2ccccc2)c1-c1ccccc1
Resp: 103 % of control

Req: API: value(readout=T/C, system=P388 leukemia ip, CD2F1 mice, survival T/C) for record CC(=O)N1NC(=O)c2c(c3ccccc3n2C)C1c1ccc(C)cc1 (configuration not stated)
Resp: 100 % of control

More entries:
Req: Request - read-out T/C | tested on P388 leukemia ip, CD2F1 mice, survival T/C | compound COCC1(C)CCCC2(C)C1CCC13CCCCC12O3 (configuration not stated)
Resp: 100 % of control

Req: I'm curious: which T/C was measured for NC(Cc1csc2ccc(Cl)cc12)C(=O)O (configuration not stated) tested on P388 leukemia ip, CD2F1 mice, survival T/C?
Resp: 100 % of control

Req: Recorded T/C for COc1cc(Cc2nnc(N)nc2N)cc(OC)c1OC with P388 leukemia ip, CD2F1 mice, survival T/C, please?
Resp: 100 % of control

----------
Item-by-item account of T/C
Tested on: P388 leukemia ip, CD2F1 mice, survival T/C
protocol-notes: NCI In Vivo Anticancer Drug Screen. Data for tumor model P388 Leukemia (intraperitoneal) in CD2F1 (CDF1) mice
test-parameters: endpoint: median survival time; dose: 120.0 mg/kg/injection; schedule: Q01DX005 (ip); vehicle: saline; higher = longer survival
Method: The antitumor activity of compounds was measured in mice bearing transplantable tumors. Survival or tumor size were measured and the results are expressed as the measurement made in the treated group (T) divided by the measurement made in the vehicle treated control group (C). The tumor model used in this assay is P388 Leukemia (intraperitoneal) in CD2F1 (CDF1) mice
Toxic doses and inconclusive results are not listed.

Worked cases, answers included:
Req: Given the molecule CC1C(O)CCC2=CC(=O)C3(C4(CO)CO4)OC3C21C (configuration not stated) , what is its reported T/C?
Resp: 98 % of control

Req: Suppose we examine the molecule CCN(CC)CCNc1ccccc1 ; what T/C value has been reported?
Resp: 99 % of control

Req: Endpoint output: T/C of CC(C)N(CC#CCO)CCO . Value?
Resp: 100 % of control

Next:
Req: Given the molecule C=CC(/C=C\c1ccc(OC2OC(CO)C(O)C(O)C2O)cc1)c1ccc(OC2OC(CO)C(O)C(O)C2O)cc1 (configuration not stated) , what is its reported T/C?
Resp: 103 % of control

----------
The reader will find reported T/C values listed item by item below.
Tested on: P388 leukemia ip, CD2F1 mice, survival T/C
protocol-notes: NCI In Vivo Anticancer Drug Screen. Data for tumor model P388 Leukemia (intraperitoneal) in CD2F1 (CDF1) mice
test-parameters: endpoint: median survival time; dose: 120.0 mg/kg/injection; schedule: Q01DX005 (ip); vehicle: Klucel (hydroxypropylcellulose) (HPC); higher = longer survival
Toxic doses and inconclusive results are not listed.

Illustrative cases are given below, each with its answer.
Req: Fill in: T/C of S=C(NCc1ccccc1)N1CCC(CCCC2CCN(C(=S)NCc3ccccc3)CC2)CC1 is ___
Resp: 91 % of control

Req: What T/C value was documented for this compound, CC(C)(C(=S)[S-])[P+](c1ccccc1)(c1ccccc1)c1ccccc1 ?
Resp: 92 % of control

Req: For CCOc1ccc(-n2c(-c3ccc(F)cc3)c(N=Nc3ccccc3)sc2=N)cc1 , what is its reported T/C?
Resp: 102 % of control

Req: Fill in: T/C of CCn1c2ccccc2c2cc(N=C3C(=O)N(C)c4ccccc43)ccc21 is ___
Resp: 92 % of control

Req: For O=c1[nH]c2c([N+](=O)[O-])cc(Cl)cc2nc1/C=C(\O)c1cccc2ccccc12 , what is its reported T/C?
Resp: 102 % of control

Req: Field request: T/C | item: O=C1C2=C(Nc3cc(Cl)ccc3N2)OC1c1ccccc1Cl (stereo not given)
Resp: 94 % of control

Others:
Req: Tell me the measured T/C of O=C(O)c1cnc2cc3c(cc2c1Nc1ccc2c(c1)OCO2)OCO3 , please.
Resp: 92 % of control

Req: Dear colleague, I am looking for the recorded T/C of the following compound: COc1ccc(N=Nc2ncc(N)nc2N)cc1
Resp: 108 % of control

Req: Please give the measured T/C for this compound: CCC(=O)N1C(=O)C(C)C23c4cccc([N+](=O)[O-])c4C(=O)N2CCCN13 (stereo not given)
Resp: 97 % of control

Req: Suppose we examine the compound O=c1cc(CC2(O)CCCCC2)c2ccccc2[nH]1 ; what T/C value has been reported?
Resp: 102 % of control

----------
Measured T/C, listed per entry for reference.
Test system: P388 leukemia ip, CD2F1 mice, survival T/C
protocol-notes: NCI In Vivo Anticancer Drug Screen. Data for tumor model P388 Leukemia (intraperitoneal) in CD2F1 (CDF1) mice
test-parameters: endpoint: median survival time; dose: 60.0 mg/kg/injection; schedule: Q01DX005 (ip); vehicle: saline with Tween-80; higher = longer survival
Inconclusive results and toxic doses are left out.

Req: Query the reported T/C for P388 leukemia ip, CD2F1 mice, survival T/C; item: Cc1onc(-c2c(F)cccc2Cl)c1-c1ncc(-c2ccc(Cl)cc2)o1
Resp: 98 % of control

Req: Give P388 leukemia ip, CD2F1 mice, survival T/C T/C for CN1C(=O)N(C)C2=NC(=O)N(C)C2(C(Cl)(Cl)Cl)C1=O (stereo not drawn)
Resp: 112 % of control

Req: Item: Cc1ccc2c(c1)CN(C)c1ccc(C)cc1CN2C Test system: P388 leukemia ip, CD2F1 mice, survival T/C Read-out: T/C Value: ?
Resp: 98 % of control

We now examine a further molecule.
Req: API: value(readout= T/C, system= P388 leukemia ip, CD2F1 mice, survival T/C, query= O=C(O)c1ccc(S(=O)(=O)F)c(Cl)c1 )
Resp: 120 % of control

src = PubChem BioAssay AID330
